- Target system: T1, human PTH/PTHrP receptor (PTH1 receptor) (human, UniProt Q03431 27-593)
- T1 construct: whole, on cells; Native receptor; Assayed in three preparations: purified human renal cortical membranes, SaOS-2 membranes and intact SaOS-2 cells; also called common PTH/PTHrP receptor; human renal receptor
- T1 sequence (looked up): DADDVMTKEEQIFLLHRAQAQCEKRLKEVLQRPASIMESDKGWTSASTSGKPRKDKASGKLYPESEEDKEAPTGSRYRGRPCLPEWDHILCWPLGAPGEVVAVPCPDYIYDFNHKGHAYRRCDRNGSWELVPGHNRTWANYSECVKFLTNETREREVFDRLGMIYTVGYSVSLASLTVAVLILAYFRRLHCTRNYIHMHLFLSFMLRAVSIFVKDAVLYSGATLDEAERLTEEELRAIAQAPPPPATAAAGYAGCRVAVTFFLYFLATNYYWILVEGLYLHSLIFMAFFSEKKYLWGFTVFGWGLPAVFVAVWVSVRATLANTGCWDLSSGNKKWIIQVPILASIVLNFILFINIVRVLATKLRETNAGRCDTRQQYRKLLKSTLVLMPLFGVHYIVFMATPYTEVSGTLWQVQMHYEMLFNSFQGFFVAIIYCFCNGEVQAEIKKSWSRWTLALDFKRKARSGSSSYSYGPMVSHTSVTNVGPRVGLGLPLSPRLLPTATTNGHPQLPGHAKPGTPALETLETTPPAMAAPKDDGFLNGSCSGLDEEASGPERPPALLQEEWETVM
- Assay remarks: competition of 125I-(Tyr36)hPTHrP-(1-36)NH2 binding, human renal cortical membranes, 30 C, 30 min
pIC50: −log10 of the molar value. Non-standard residues stand in square brackets, D forms with d. No end group written: not given here. Nle = CCCC[C@H](N)C(=O)O
Quantity measured: pIC50

bPTH-(1-84) (ligand, bovine, UniProt P01268 32-115, looked up, range 1-84; From the National Hormone and Pituitary Program (NIDDK); also called bovine PTH-(1-84)) AVSEIQFMHNLGKHLSSMERVEWLRKKLQDVHNFVALGASIAYRDGSSQRPRKKEDNVLVESHQKSLGEADKADVDVLIKAKPQ = 8.29

[I] SVSEIQL[Nle]HNLGKHLNS[Nle]ERVEWLRKKLQDVHNY [(Nle^8,18, Tyr^34)hPTH-(1-34)]
[II] SVSEMQLMHNLGEHRHTVERQDWLQMKLQDVHSA-NH2 (peptide, UniProt P15743 32-65, looked up, range 1-34; Solid phase synthesis; also called cPTH-(1-34)NH2) [Chicken PTH-(1-34)amide]
// task: argmin of pIC50 over [ I , II ] Field: selected label. Fill in the label of the entry you choose.
II
(II: 7.67, I: 8.44)

These data points were gathered from patent US20060025342A1.
